Recorded values, source patent US20160251440A1.

- target_system: T1, human CD4, cell-expressed (human, UniProt P01730 26-458)
- T1 construct: whole, on cells
- experimental_details: flow cytometry on activated T cells of donor D838 (very high CD4, moderate IL12R), upper left panel
measured_property: EC50 (read off the curve)

-- ask What value of EC50 (read off the curve) has been recorded for this entry: IL12Rb2#2-35GS-CD4#8 (bispecific antibody, defined by its make-up) EVQLVESGGRLVQAGDSLRLSCAASGRTFTSYRMGWFRQAPGKEREFVSALRWSSGNIDYTYYADSVKGRFSISGDYAKNTVYLQMNSLKAEDTAVYYCAASTRWGVMESDTEYTSWGQGTLVTVSSGGGGSGGGGSGGGGSGGGGSGGGGSGGGGSGGGGSEVQLVESGGGSVQPGGSLTLSCGTSGRTFNVMGWFRQAPGKEREFVAAVRWSSTGIYYTQYADSVKSRFTISRDNAKNTVYLEMNSLKPEDTAVYYCAADTYNSNPARWDGYDFRGQGTLVTVSS
-- reply ~1 nM
